Value source: ChEMBL document CHEMBL1177781

I'd be grateful if you could share measured pEC50 for these entries.
Test system: Hepatitis C virus
Test: Antiviral activity against HCV1b infected in human Huh7 cells assessed as inhibition viral subgenomic replication
Type: functional, organism-based, Hepacivirus hominis
Conditions: genotype 1b, Huh-7
On this scale, pEC50 is minus log10 of a concentration expressed in M (mol/L).

Query: What value of measured pEC50 is listed for `COc1ccc2c(O[C@@H]3C[C@H]4C(=O)N[C@]5(C(=O)NS(=O)(=O)C6CC6)C[C@H]5/C=C\CCCCN(C)C(=O)N4C3)nc(-c3ccccc3)nc2c1C` ?
Result: 7.96

Query: What value of measured pEC50 is listed for `COc1ccc2c(O[C@@H]3C[C@H]4C(=O)N[C@]5(C(=O)NS(=O)(=O)C6CC6)C[C@H]5/C=C\CCCCCNC(=O)N4C3)nc(-c3ccc(F)cc3)nc2c1C` ?
Result: 7.80

Query: What value of measured pEC50 is listed for `COc1ccc2c(O[C@@H]3C[C@H]4C(=O)N[C@]5(C(=O)NS(=O)(=O)C6CC6)C[C@H]5/C=C\CCCCN(C)C(=O)[C@@H]4C3)nc(-c3ccccc3)nc2c1C` ?
Result: 8.30

----------
Assay: Cmax in Sprague-Dawley rat at 10 mg/kg, po
Assay type: ADME, organism-based
Set-up: dose 10 mg/kg, route oral
Conditions: in vivo
measuredProperty: Cmax

Query: What value of measured Cmax is listed for `COc1ccc2c(O[C@@H]3C[C@H]4C(=O)N[C@]5(C(=O)NS(=O)(=O)C6CC6)C[C@H]5/C=C\CCCCN(C)C(=O)[C@@H]4C3)nc(-c3ccccc3)nc2c1C` ?
Result: 660 nM

Query: What value of measured Cmax is listed for `COc1ccc2c(O[C@@H]3C[C@H]4C(=O)N[C@]5(C(=O)NS(=O)(=O)C6CC6)C[C@H]5/C=C\CCCCN(C)C(=O)N4C3)nc(-c3ccc(F)cc3)nc2c1C` ?
Result: 2600 nM

Query: What value of measured Cmax is listed for `COc1ccc2c(O[C@@H]3C[C@H]4C(=O)N[C@]5(C(=O)NS(=O)(=O)C6CC6)C[C@H]5/C=C\CCCCN(C)C(=O)N4C3)nc(-c3ccccc3)nc2c1C` ?
Result: 3400 nM

Query: What value of measured Cmax is listed for `COc1ccc2c(O[C@@H]3C[C@H]4C(=O)N[C@]5(C(=O)NS(=O)(=O)C6CC6)C[C@H]5/C=C\CCCCCNC(=O)N4C3)nc(-c3ccc(F)cc3)nc2c1C` ?
Result: 390 nM

----------
I'd be grateful if you could share measured pEC50 for these entries.
Test system: Hepatitis C virus
Assay: Antiviral activity against HCV1b infected in human Huh7 cells assessed as inhibition viral subgenomic replication
Format: functional, organism-based, Hepacivirus hominis
Settings: genotype 1b, Huh-7
On this scale, pEC50 is minus log10 of a concentration expressed in M (mol/L).

Query: What value of measured pEC50 is listed for `COc1ccc(-c2nc(O[C@@H]3C[C@H]4C(=O)N[C@]5(C(=O)NS(=O)(=O)C6CC6)C[C@H]5/C=C\CCCCN(C)C(=O)N4C3)c3ccc(OC)c(C)c3n2)cc1` ?
Result: 8.52

Query: What value of measured pEC50 is listed for `COc1ccc2c(O[C@@H]3C[C@H]4C(=O)N[C@]5(C(=O)NS(=O)(=O)C6CC6)C[C@H]5/C=C\CCCCN(C)C(=O)N4C3)nc(-c3cccc(C)n3)nc2c1C` ?
Result: 6.89

Query: What value of measured pEC50 is listed for `COc1ccc2c(O[C@@H]3C[C@H]4C(=O)N[C@]5(C(=O)NS(=O)(=O)C6CC6)C[C@H]5/C=C\CCCCN(C)C(=O)N4C3)nc(-c3cccnc3)nc2c1C` ?
Result: 7.89

Query: What value of measured pEC50 is listed for `COc1ccc(-c2nc(O[C@@H]3C[C@H]4C(=O)N[C@]5(C(=O)NS(=O)(=O)C6CC6)C[C@H]5/C=C\CCCCN(C)C(=O)[C@@H]4C3)c3ccc(OC)c(C)c3n2)cc1` ?
Result: 8.10

Query: What value of measured pEC50 is listed for `COc1ccc2c(O[C@@H]3C[C@H]4C(=O)N[C@]5(C(=O)NS(=O)(=O)C6CC6)C[C@H]5/C=C\CCCCN(C)C(=O)N4C3)nc(-c3ccc(F)cc3)nc2c1C` ?
Result: 7.80

----------
Assay: Half life in Sprague-Dawley rat at 10 mg/kg, po
Assay type: ADME, organism-based
Parameters: dose 10 mg/kg, route oral
Conditions: in vivo
measuredProperty: half-life (h)
Expressed in h, but write only the number.

Query: What value of measured half-life is listed for `COc1ccc2c(O[C@@H]3C[C@H]4C(=O)N[C@]5(C(=O)NS(=O)(=O)C6CC6)C[C@H]5/C=C\CCCCN(C)C(=O)[C@@H]4C3)nc(-c3ccccc3)nc2c1C` ?
Result: 3.8

----------
Assay: Inhibition of HCV 1a NS3/4A protease
Design: species or system Hepatitis C virus subtype 1a
I'd be grateful if you could share measured pKi for these entries.
On this scale, pKi is minus log10 of a concentration expressed in M (mol/L).

Query: What value of measured pKi is listed for `COc1ccc2c(O[C@@H]3C[C@H]4C(=O)N[C@]5(C(=O)NS(=O)(=O)C6CC6)C[C@H]5/C=C\CCCCN(C)C(=O)N4C3)nc(-c3ccc(F)cc3)nc2c1C` ?
Result: 9.52

Query: What value of measured pKi is listed for `COc1ccc(-c2nc(O[C@@H]3C[C@H]4C(=O)N[C@]5(C(=O)NS(=O)(=O)C6CC6)C[C@H]5/C=C\CCCCN(C)C(=O)N4C3)c3ccc(OC)c(C)c3n2)cc1` ?
Result: 9.22

Query: What value of measured pKi is listed for `COc1ccc2c(O[C@@H]3C[C@H]4C(=O)N[C@]5(C(=O)NS(=O)(=O)C6CC6)C[C@H]5/C=C\CCCCN(C)C(=O)N4C3)nc(-c3ccccc3)nc2c1C` ?
Result: 9.70

----------
Experiment: Ratio of drug level in liver to plasma in Sprague-Dawley rat at 2 mg/kg, iv after 6 hrs
Assay type: ADME, organism-based
Parameters: dose 2 mg/kg, route intravenous
measuredProperty: Kp at 6 h
Note: the reply should be a number with no unit written.

Query: What value of measured Kp at 6 h is listed for `COc1ccc2c(O[C@@H]3C[C@H]4C(=O)N[C@]5(C(=O)NS(=O)(=O)C6CC6)C[C@H]5/C=C\CCCCN(C)C(=O)N4C3)nc(-c3ccccc3)nc2c1C` ?
Result: 38

Query: What value of measured Kp at 6 h is listed for `COc1ccc2c(O[C@@H]3C[C@H]4C(=O)N[C@]5(C(=O)NS(=O)(=O)C6CC6)C[C@H]5/C=C\CCCCCNC(=O)N4C3)nc(-c3ccc(F)cc3)nc2c1C` ?
Result: 2.5

----------
I'd be grateful if you could share measured CL for these entries.
System: Liver microsomes
Experiment: Intrinsic clearance in human liver microsomes
Assay type: ADME, Microsome
Expressed in µL/min, but write only the number.

Query: What value of measured CL is listed for `COc1ccc2c(O[C@@H]3C[C@H]4C(=O)N[C@]5(C(=O)NS(=O)(=O)C6CC6)C[C@H]5/C=C\CCCCN(C)C(=O)[C@@H]4C3)nc(-c3nc(C(C)C)cs3)nc2c1` ?
Result: 76

Query: What value of measured CL is listed for `COc1ccc2c(O[C@@H]3C[C@H]4C(=O)N[C@]5(C(=O)NS(=O)(=O)C6CC6)C[C@H]5/C=C\CCCCN(C)C(=O)N4C3)nc(-c3ccccc3)nc2c1C` ?
Result: 17

Query: What value of measured CL is listed for `COc1ccc2c(O[C@@H]3C[C@H]4C(=O)N[C@]5(C(=O)NS(=O)(=O)C6CC6)C[C@H]5/C=C\CCCCCNC(=O)N4C3)nc(-c3ccc(F)cc3)nc2c1C` ?
Result: 20

Query: What value of measured CL is listed for `COc1ccc(-c2nc(O[C@@H]3C[C@H]4C(=O)N[C@]5(C(=O)NS(=O)(=O)C6CC6)C[C@H]5/C=C\CCCCN(C)C(=O)N4C3)c3ccc(OC)c(C)c3n2)cc1` ?
Result: 8

Query: What value of measured CL is listed for `COc1ccc2c(O[C@@H]3C[C@H]4C(=O)N[C@]5(C(=O)NS(=O)(=O)C6CC6)C[C@H]5/C=C\CCCCN(C)C(=O)[C@@H]4C3)nc(-c3ccccc3)nc2c1` ?
Result: 88

----------
Tested on: Liver microsomes
Assay: Intrinsic clearance in human liver microsomes
Assay type: ADME, Microsome
Short version: CL at least 30 µL/min is met, less is not met.

Query: Item `COc1ccc2c(O[C@@H]3C[C@H]4C(=O)N[C@]5(C(=O)NS(=O)(=O)C6CC6)C[C@H]5/C=C\CCCCN(C)C(=O)[C@@H]4C3)nc(-c3ccc(F)cc3)nc2c1` with CL of 30 µL/min or above?
Result: met

Query: Item `COc1ccc(-c2nc(O[C@@H]3C[C@H]4C(=O)N[C@]5(C(=O)NS(=O)(=O)C6CC6)C[C@H]5/C=C\CCCCN(C)C(=O)[C@@H]4C3)c3ccc(OC)c(C)c3n2)cc1` with CL of 30 µL/min or above?
Result: not met

Query: Item `CN1CCCC/C=C\[C@@H]2C[C@@]2(C(=O)NS(=O)(=O)C2CC2)NC(=O)[C@@H]2C[C@@H](Oc3nc(-c4ccccc4)nc4ccccc34)C[C@H]2C1=O` with CL of 30 µL/min or above?
Result: met

Query: Item `COc1ccc2c(O[C@@H]3C[C@H]4C(=O)N[C@]5(C(=O)NS(=O)(=O)C6CC6)C[C@H]5/C=C\CCCCCNC(=O)N4C3)nc(-c3ccccc3)nc2c1C` with CL of 30 µL/min or above?
Result: not met

Query: Item `COc1ccc2c(O[C@@H]3C[C@H]4C(=O)N[C@]5(C(=O)NS(=O)(=O)C6CC6)C[C@H]5/C=C\CCCCN(C)C(=O)N4C3)nc(-c3ccncc3)nc2c1C` with CL of 30 µL/min or above?
Result: not met
